- System: Streptococcus dysgalactiae
- method.description: In vitro MIC against bovine mastitis strains
- Format: cell-based
- measurement.context: Internal Ref. No. 366, isolated from the bovine udder, read-out: Approximate MIC
Entries and their MIC values follow.
measured.property: MIC (µM)

{"columns": ["compound", "system.tested", "measured.property", "unit.name", "reading"],
 "data": [
  ["COc1cc(Cc2cnc(N)nc2N)cc(OCCCCc2ccccc2)c1OC", "Streptococcus dysgalactiae", "MIC", "µM", 0.75],
  ["COc1cc(Cc2cnc(N)nc2N)cc(OCCOCc2ccccc2)c1OC", "Streptococcus dysgalactiae", "MIC", "µM", 3.3],
  ["COc1cc(Cc2cnc(N)nc2N)cc(OCCCc2ccccc2)c1OC", "Streptococcus dysgalactiae", "MIC", "µM", 0.75],
  ["COc1cc(Cc2cnc(N)nc2N)cc(OC)c1OC [Trimethoprim, reference compound]", "Streptococcus dysgalactiae", "MIC", "µM", 3.3],
  ["COc1cccc(CCCOc2cc(Cc3cnc(N)nc3N)cc(OC)c2OC)c1", "Streptococcus dysgalactiae", "MIC", "µM", 0.75]
]}

Attribution: patent EP0054756A2
